- System: RPE-A19 cells
- METHOD_DESCRIPTION: IC50 in RPE-A19 cells (Table 2)
- Assay type: cell-based, human
- COND: Homo sapiens, 72 h
Each entry below carries its reported pIC50.
pIC50 here is simply -log10 of the concentration when that concentration is written in mol/L.

{"MOLECULE_SMILES": "CN1Cc2c(ccc3c2OCO3)[C@@H]2[C@H]1c1cc3c(cc1C[C@@H]2O)OCO3", "pIC50": 5.73}

Consider the additional compound presented here.
Task: Given CN1Cc2c(ccc3c2OCO3)[C@@]2(C)[C@@H](O)Cc3cc4c(cc3[C@@H]12)OCO4 , state its recorded pIC50.
Result: 4.97

----------
- System: IMR 90 cells
- METHOD_DESCRIPTION: IC50 in IMR 90 cells (Table 2)
- Format: cell-based
- COND: Homo sapiens, IMR-90, 72 h
READOUT_KIND: IC50 (µM)
Just the number please, in µM, no unit attached.

Task: For CN1Cc2c(ccc3c2OCO3)[C@@H]2[C@H]1c1cc3c(cc1C[C@@H]2O)OCO3 [Chelidonine] , what is its reported IC50?
Result: 2.43

----------
- Test system: RPE-MBC cells
- METHOD_DESCRIPTION: IC50 in RPE-MBC cells (Table 1)
- Type: cell-based, human
- COND: RPE-MBC, treatment 72 h; read-out: IC50
READOUT_KIND: IC50
Write down the value, and be sure its unit follows.

Task: Entry under review: CN(C)c1ccc(C(=O)c2ccc(N(C)C)cc2)cc1 [MK, Michael's ketone, reference compound] . Reported IC50?
Result: 207 nM

----------
- System: RPE-MBC cells
- METHOD_DESCRIPTION: IC50 in RPE-MBC cells (Table 1)
- Type: cell-based, human
- COND: Homo sapiens; RPE-MBC, treatment 72 h; read-out: IC50
READOUT_KIND: IC50 (µM)
State just the number; it will be interpreted in µM.

Task: # get_value(readout='IC50', item= CC(=O)O[C@H]1Cc2cc3c(cc2[C@H]2N(C)Cc4c(ccc5c4OCO5)[C@@]12C)OCO3 [Acetylcorynoline] )
Result: 9.94

----------
- System: RPE-MBH cells
- METHOD_DESCRIPTION: IC50 in RPE-MBH cells (Table 1)
- Type: cell-based, human
- COND: Homo sapiens, 72 h
READOUT_KIND: IC50 (µM)
Response body: numeric value in µM, unit text excluded.

{"MOLECULE_SMILES": "CN1Cc2c(ccc3c2OCO3)[C@@]2(C)[C@@H](O)Cc3cc4c(cc3[C@@H]12)OCO4", "TEST_VALUE": 15.1}

Here is another compound to look at.
Task: I would be grateful if you could share the reported IC50 for CN1Cc2c(ccc3c2OCO3)[C@@H]2[C@H]1c1cc3c(cc1C[C@@H]2O)OCO3 .
Result: 2.32

----------
- Test system: RPE-MBH cells
- METHOD_DESCRIPTION: IC50 in RPE-MBH cells (Table 1)
- Format: cell-based, human
- COND: RPE-MBH, treatment 72 h; read-out: IC50
READOUT_KIND: IC50 (nM)
Give just the number in nM; leave the unit off.

Task: Query: IC50; subject: CN(C)c1ccc(C(=O)c2ccc(N(C)C)cc2)cc1 [MK, Michael's ketone, reference compound]
Result: 303

----------
pIC50 reference
- Test system: 3T3 MEF cells
- METHOD_DESCRIPTION: IC50 in 3T3 MEF cells (Table 2)
- Format: cell-based
- COND: Mus musculus, MEF, 72 h
Notebook: values listed as pIC50 are -log10 of the concentration (mol/L).

{"MOLECULE": "CN1Cc2c(ccc3c2OCO3)[C@@]2(C)[C@@H](O)Cc3cc4c(cc3[C@@H]12)OCO4 [Corynoline]", "EXPERIMENTAL_TARGET": "3T3 MEF cells", "pIC50": 4.91}

Now look at this one.
Task: Can you share its pIC50? I mean this molecule: CN1Cc2c(ccc3c2OCO3)[C@@H]2[C@H]1c1cc3c(cc1C[C@@H]2O)OCO3 [Chelidonine]
Result: 5.82

----------
- Tested on: RPE-MBC cells
- METHOD_DESCRIPTION: Mitotic arrest (cell round-up, phospho-Histone H3) and polyploidy (DAPI) assay
- Assay type: cell-based, human
- COND: within 48-hour treatment
READOUT_KIND: persistence of the arrest of cells in mitosis

{"COMPOUND": "CC(=O)O[C@H]1Cc2cc3c(cc2[C@H]2N(C)Cc4c(ccc5c4OCO5)[C@@]12C)OCO3 [Acetylcorynoline]", "EXPERIMENTAL_TARGET": "RPE-MBC cells", "TEST_VALUE": "transient"}
{"COMPOUND": "CN1CCc2cc3c(cc2C(=O)Cc2ccc4c(c2C1)OCO4)OCO3 [protopine]", "EXPERIMENTAL_TARGET": "RPE-MBC cells", "TEST_VALUE": "transient"}
{"COMPOUND": "CN1Cc2c(ccc3c2OCO3)[C@@H]2[C@H]1c1cc3c(cc1C[C@@H]2O)OCO3 [Chelidonine]", "EXPERIMENTAL_TARGET": "RPE-MBC cells", "TEST_VALUE": "transient"}
